Item-by-item account of inhibition
Biological target: Tyrosine-protein kinase Yes (Homo sapiens) (UniProt P07947)
Sequence (P07947 2-543 limits assumed): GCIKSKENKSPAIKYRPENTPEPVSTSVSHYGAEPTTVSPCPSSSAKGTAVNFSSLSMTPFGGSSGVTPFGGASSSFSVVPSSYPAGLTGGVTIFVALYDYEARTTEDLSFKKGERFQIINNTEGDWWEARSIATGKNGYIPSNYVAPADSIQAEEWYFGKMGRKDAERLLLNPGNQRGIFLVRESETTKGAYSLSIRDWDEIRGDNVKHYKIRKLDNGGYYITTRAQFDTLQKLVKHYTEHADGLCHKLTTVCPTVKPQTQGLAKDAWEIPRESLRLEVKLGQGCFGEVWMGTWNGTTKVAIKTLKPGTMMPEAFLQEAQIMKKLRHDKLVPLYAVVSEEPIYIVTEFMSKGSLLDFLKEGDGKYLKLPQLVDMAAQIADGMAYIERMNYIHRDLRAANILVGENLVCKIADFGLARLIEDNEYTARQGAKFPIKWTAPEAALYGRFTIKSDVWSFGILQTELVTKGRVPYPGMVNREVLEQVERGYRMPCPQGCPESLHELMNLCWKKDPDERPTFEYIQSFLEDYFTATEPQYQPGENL
Experiment: Inhibition of YES1 (unknown origin) at 50 nM by Z'LYTE screening method relative to control
Kindly answer with a numeric value in %, unit omitted.

Example entries begin here.
O=c1c2ccccc2[se]n1-c1nc(Nc2ccccc2)c2nc[nH]c2n1    8
CCN(CC)CCCC(C)Nc1nc(N2Cc3ccccc3C2=O)nc2[nH]cnc12 (stereo not given)    9
O=C1c2ccccc2CN1c1nc(N[C@H]2CC[Se]C2)c2nc[nH]c2n1    12
O=c1c2ccccc2[se]n1-c1nc(N[C@H]2CC[Se]C2)c2nc[nH]c2n1    10

Report value: inhibition, system: Tyrosine-protein kinase Yes (Homo sapiens) (UniProt P07947), compound: O=c1c2ccccc2[se]n1-c1nc(N[C@H]2CCOC2)c2nc[nH]c2n1
6
